- experimental.system: SLAMF9 protein (UniProt Q96A28 19-236, limits assumed)
- Sequence (Q96A28 19-236 limits assumed): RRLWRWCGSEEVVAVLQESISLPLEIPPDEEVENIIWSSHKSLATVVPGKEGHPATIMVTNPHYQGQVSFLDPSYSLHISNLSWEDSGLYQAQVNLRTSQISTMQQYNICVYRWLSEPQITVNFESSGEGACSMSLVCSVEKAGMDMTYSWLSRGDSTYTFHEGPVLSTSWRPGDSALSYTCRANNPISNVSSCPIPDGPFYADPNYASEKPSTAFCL
- assay.details: phage clone on SLAMF9 protein

binder	binding result
ET200-008 (scFv, screened as phage clone; entry is VL-linker-VH-His tag-HA tag) scFv: QSALTQPASVSGSPGQSITISCTGTSSDVGGYNYVSWYQQHPGKAPKLMIYDVSNRPSGVSNRFSGSKSGNTASLTISGLQAEDEADYYCSSYTSSSTSKVFGGGTKLTVLGSRGGGGSGGGGSGGGGSLEMAEVQLVESGGGVVRPGGSLRLSCAASGFTFGDYGMSWVRQAPGKGLEWVSGINWNGGSTGYADSVKGRFTISRDNAKNSLYLQMNSLRAEDTAVYYCARSKYNFHVYYDYWGQGTLVTVSSTSGQAGQHHHHHHGAYPYDVPDYAS	no binding
ET200-041 (scFv, screened as phage clone; entry is VL-linker-VH-His tag-HA tag) scFv: NFMLTQPHSVSGSPGKTVTISCTGSSGSIADNFVQWYQQRPGGVPTTVIFNDDERPSGVPDRFSGSIDTSSNSASLTISGLKTEDEADYYCQSYDNNNRGVFGGGTKLTVLGSRGGGGSGGGGSGGGGSLEMAQVQLVQSGAEVKKPGSSVKVSCKASGGTFSSYAISWVRQAPGQGLEWMGWMNPNSGNTGYAQKFQGRVTMTRNTSISTAYMELSNLRSEDTAVYYCARYYSYGYDWGQGTLVTVSSTSGQAGQHHHHHHGAYPYDVPDYAS	no binding
